Experimental details: Antiproliferative activity against human KBVIN cells after 72 hrs by SRB assay
Type: functional
Please respond with reported GI50 for every item in the list.

The recorded GI50 for entry CCc1oc2c(C)c(OCc3cccc(C(F)(F)F)c3)ccc2c(=O)c1Br equals > 22.7 µM

The recorded GI50 for entry Cc1cc(=O)oc2cc(SCc3cccc(OC(F)(F)F)c3)ccc12 equals 15.3 µM

The recorded GI50 for entry Cc1cc(=O)oc2cc(SC3CCOC3=O)ccc12 (stereo not given) equals > 36.2 µM

The recorded GI50 for entry CCOc1ccc2c(=O)cc(CC)oc2c1CBr equals > 32.1 µM

The recorded GI50 for entry CCc1cc(=O)c2ccc(OC)c(CBr)c2o1 equals > 33.6 µM

The recorded GI50 for entry Cc1cc(=O)oc2cc(SCc3cccc(C#N)c3)ccc12 equals > 32.5 µM

The recorded GI50 for entry CCc1cc(=O)c2ccc(OCc3cccc(C)c3)c(C)c2o1 equals 24.9 µM

The recorded GI50 for entry Cc1cc(=O)oc2cc(SCc3cccnc3)ccc12 equals > 35.3 µM

The recorded GI50 for entry CC(=O)O[C@H]1C(=O)[C@@]2(C)[C@H]([C@H](OC(=O)c3ccccc3)[C@]3(O)C[C@H](OC(=O)[C@H](O)[C@@H](NC(=O)c4ccccc4)c4ccccc4)C(C)=C1C3(C)C)[C@]1(OC(C)=O)CO[C@@H]1C[C@@H]2O [PACLITAXEL] equals > 1 µM

The recorded GI50 for entry CCc1cc(=O)c2ccc(OCC(C)C)c(CBr)c2o1 equals > 29.5 µM

====

Please respond with reported log10 of GI50 for every item in the list.
Experimental details: Antiproliferative activity against human KBVIN cells after 72 hrs by SRB assay
Type: functional
Log scale reminder: GI50 in µM, then log10 taken.

The recorded log10 of GI50 for entry CC(C)COc1ccc2c(=O)cc(C(C)Br)oc2c1CBr (stereo unspecified) equals 0.98

The recorded log10 of GI50 for entry CCc1cc(=O)c2ccc(OCc3ccccc3)c(C)c2o1 equals 1.39

The recorded log10 of GI50 for entry COc1ccc2c(=O)cc(C(C)Br)oc2c1CBr (stereo unspecified) equals 1.23

The recorded log10 of GI50 for entry Cc1cc(=O)oc2cc(Sc3cccc(Cl)[n+]3[O-])ccc12 equals 1.39

The recorded log10 of GI50 for entry Cc1cc(=O)oc2cc(Sc3cccc(Cl)n3)ccc12 equals -0.04

The recorded log10 of GI50 for entry CCc1cc(=O)c2ccc(Sc3cccc(Cl)n3)c(C)c2o1 equals 1.38

The recorded log10 of GI50 for entry COC(=O)c1cccc(CSc2ccc3c(C)cc(=O)oc3c2)c1 equals 0.73

The recorded log10 of GI50 for entry CC(C)Oc1ccc2c(=O)cc(C(C)Br)oc2c1CBr (stereo unspecified) equals 1.06

The recorded log10 of GI50 for entry CCc1oc2c(C)c(OC)ccc2c(=O)c1Br equals 1.37

The recorded log10 of GI50 for entry CCc1oc2c(C)c(OC(C)C)ccc2c(=O)c1Br equals 0.77

The recorded log10 of GI50 for entry CCOc1ccc2c(=O)cc(C(C)Br)oc2c1CBr (stereo unspecified) equals 1.11

====

Experimental details: Antiproliferative activity against human KBVIN cells after 72 hrs by SRB assay
Assay type: functional
Property measured: GI50

The recorded GI50 for entry CCc1cc(=O)c2ccc(OC(C)C)c(CBr)c2o1 equals > 30.8 µM

The recorded GI50 for entry COc1cccc(CSc2ccc3c(C)cc(=O)oc3c2)c1 equals > 32 µM

The recorded GI50 for entry CCc1cc(=O)c2ccc(OCc3cccc(C(F)(F)F)c3)c(C)c2o1 equals > 27.6 µM

The recorded GI50 for entry CCc1cc(=O)c2ccc(Sc3cccc(Cl)n3)cc2o1 equals > 31.5 µM

The recorded GI50 for entry Cc1cc(=O)oc2cc(SCc3cccc(C(F)(F)F)c3)ccc12 equals > 28.5 µM

The recorded GI50 for entry Cc1cc(=O)oc2cc(SCc3ccccn3)ccc12 equals > 35.3 µM

The recorded GI50 for entry CCc1cc(=O)c2ccc(Sc3cccc(Cl)[n+]3[O-])c(C)c2o1 equals > 28.8 µM

The recorded GI50 for entry CCc1cc(=O)c2ccc(OCc3cccc(C#N)c3)c(C)c2o1 equals > 31.3 µM

The recorded GI50 for entry COc1cc(CSc2ccc3c(C)cc(=O)oc3c2)c([N+](=O)[O-])cc1OC equals > 25.8 µM

The recorded GI50 for entry CCc1oc2c(C)c(OCc3ccccc3)ccc2c(=O)c1Br equals > 26.8 µM

The recorded GI50 for entry CCc1cc(=O)c2ccc(Sc3cccc(Cl)[n+]3[O-])cc2o1 equals > 30 µM

The recorded GI50 for entry COc1ccc(Br)c(CSc2ccc3c(C)cc(=O)oc3c2)c1 equals > 25.6 µM

The recorded GI50 for entry Cc1cc(=O)oc2cc(SCc3ccncc3)ccc12 equals > 35.3 µM

The recorded GI50 for entry Cc1cccc(CSc2ccc3c(C)cc(=O)oc3c2)c1 equals > 33.7 µM

The recorded GI50 for entry COc1cc(CSc2ccc3c(C)cc(=O)oc3c2)cc(OC)c1 equals > 29.2 µM
